Listed here: items and their measured T/C.
Test system: P388 leukemia ip, CD2F1 mice, survival T/C
Test: NCI In Vivo Anticancer Drug Screen. Data for tumor model P388 Leukemia (intraperitoneal) in CD2F1 (CDF1) mice
Details: endpoint: median survival time; dose: 50.0 mg/kg/injection; schedule: Q01DX005 (ip); vehicle: saline with Tween-80; higher = longer survival
Method: The antitumor activity of compounds was measured in mice bearing transplantable tumors. Survival or tumor size were measured and the results are expressed as the measurement made in the treated group (T) divided by the measurement made in the vehicle treated control group (C). The tumor model used in this assay is P388 Leukemia (intraperitoneal) in CD2F1 (CDF1) mice
Inconclusive results and toxic doses are left out.

- compound: "O=C(O)C(O)(C1CCCCC1)C1CCC(C2CCCCC2)CC1C1CCCCC1 (stereo not given)"
  T/C: "98 % of control"
- compound: "COc1ccc(-c2oc(=O)cc(-c3ccccc3)c2-c2ccccc2)cc1"
  T/C: "112 % of control"
- compound: "COC1=CC(=O)C(c2cc(O)c(OC)cc2O)=CC1=O"
  T/C: "99 % of control"
- compound: "O=C(O)C(Nc1ccc2ccccc2c1)C(=O)O"
  T/C: "94 % of control"
- compound: "COc1ccc(C(=NCCO)c2ccc(O)cc2)c(OC)c1"
  T/C: "104 % of control"

###

Listed here: items and their measured T/C.
Tested on: P388 leukemia ip, CD2F1 mice, survival T/C
Assay: NCI In Vivo Anticancer Drug Screen. Data for tumor model P388 Leukemia (intraperitoneal) in CD2F1 (CDF1) mice
Conditions: endpoint: median survival time; dose: 25.0 mg/kg/injection; schedule: Q01DX009 (ip); vehicle: other; higher = longer survival
Toxic doses and inconclusive results are not listed.

- mol-smiles: "CC1=NC(c2ccccn2)=NNC(c2ccccn2)=C1c1ccccc1"
  system: "P388 leukemia ip, CD2F1 mice, survival T/C"
  T/C: "113 % of control"
- mol-smiles: "CCCCCCCCCCCCSC1=CC(=O)C(OC)=C(OC)C1=O"
  system: "P388 leukemia ip, CD2F1 mice, survival T/C"
  T/C: "118 % of control"
- mol-smiles: "COc1ccc(C(O)c2ccc(OC)c(OC)c2)cc1OC"
  system: "P388 leukemia ip, CD2F1 mice, survival T/C"
  T/C: "100 % of control"

###

System: P388 leukemia ip, CD2F1 mice, survival T/C
Assay: NCI In Vivo Anticancer Drug Screen. Data for tumor model P388 Leukemia (intraperitoneal) in CD2F1 (CDF1) mice
Details: endpoint: median survival time; dose: 100.0 mg/kg/injection; schedule: Q01DX009 (ip); vehicle: saline with Tween-80; higher = longer survival
Toxic doses and inconclusive results are not listed.
Listed here: items and their measured T/C.

- compound: "CC(Sc1ccccc1)C(=O)N1CCCC1 (stereo unspecified)"
  T/C: "103 % of control"
- compound: "Clc1ccccc1OCC1CO1 (stereo unspecified)"
  T/C: "100 % of control"
- compound: "O=C(O)C(CCc1nc2ccccc2[nH]1)NS(=O)(=O)c1ccccc1 (stereo unspecified)"
  T/C: "102 % of control"
- compound: "CC(=O)OC1C2C=CC1C=C2 (stereo unspecified)"
  T/C: "93 % of control"
- compound: "CC(=O)OC1SC(OC(C)=O)C2OC(=O)OC12 (stereo unspecified)"
  T/C: "108 % of control"
- compound: "O=C(O)CCCCC1SCC2NC(=O)NC21 (stereo unspecified)"
  T/C: "108 % of control"

###

System: P388 leukemia ip, CD2F1 mice, survival T/C
Test: NCI In Vivo Anticancer Drug Screen. Data for tumor model P388 Leukemia (intraperitoneal) in CD2F1 (CDF1) mice
Conditions: endpoint: median survival time; dose: 200.0 mg/kg/injection; schedule: Q01DX005 (ip); vehicle: saline with Tween-80; higher = longer survival
Method: The antitumor activity of compounds was measured in mice bearing transplantable tumors. Survival or tumor size were measured and the results are expressed as the measurement made in the treated group (T) divided by the measurement made in the vehicle treated control group (C). The tumor model used in this assay is P388 Leukemia (intraperitoneal) in CD2F1 (CDF1) mice
Inconclusive results and toxic doses are left out.
measured-parameter: T/C

- compound: "O=c1[nH]cnc2cc3cn[nH]c3cc12"
  experimental-result: "95 % of control"
- compound: "CC1NC(=O)N(C(C)C)C1=O (centres undefined)"
  experimental-result: "106 % of control"
- compound: "O=C1CSCN1N1CSCC1=O"
  experimental-result: "98 % of control"
- compound: "Cc1ccccc1N=Nc1ccc(N=Nc2cc(CN(C)C)c(O)c3ncccc23)c(C)c1"
  experimental-result: "109 % of control"
- compound: "C1CCN(CCC[Si]23OCCN(CCO2)CCO3)C1"
  experimental-result: "109 % of control"
- compound: "Cc1nn(C(N)=S)c(C)c1N=Nc1cc(Cl)ccc1Cl"
  experimental-result: "88 % of control"
- compound: "CCCCCN(CCCCC)CC(O)CN1CCCc2ccccc21 (centres undefined)"
  experimental-result: "112 % of control"
- compound: "O=[N+]([O-])c1ccc(Nc2ccc(Cl)cc2)c2nonc12"
  experimental-result: "97 % of control"
- compound: "Oc1ccc2c3c1OC1C(=NN=C4CCC5(O)C6Cc7ccc(O)c8c7C5(CCN6CC5CC5)C4O8)CCC4(O)C(C2)N(CC2CC2)CCC314 (centres undefined)"
  experimental-result: "99 % of control"

###

System: P388 leukemia ip, CD2F1 mice, survival T/C
Assay: NCI In Vivo Anticancer Drug Screen. Data for tumor model P388 Leukemia (intraperitoneal) in CD2F1 (CDF1) mice
Conditions: endpoint: median survival time; dose: 100.0 mg/kg/injection; schedule: Q01DX001 (ip); vehicle: Klucel (hydroxypropylcellulose) (HPC)
Inconclusive results and toxic doses are left out. How the source made its calls: active means survival T/C of 150% or more; inactive means T/C below 125% in these data.
Outcomes: T for active, F for inactive

- molecule: "CNc1ccc(Cl)cc1SSc1cc(Cl)ccc1NC"
  system: "P388 leukemia ip, CD2F1 mice, survival T/C"
  category: "F"
- molecule: "CC(C)(C)C(=O)Oc1ccc(Br)cc1"
  system: "P388 leukemia ip, CD2F1 mice, survival T/C"
  category: "F"
- molecule: "NC1CC2CCCCC2CC1c1ccccc1 (stereo unspecified)"
  system: "P388 leukemia ip, CD2F1 mice, survival T/C"
  category: "F"
- molecule: "CCn1c(Cl)c(/C=N/NC(N)=S)c2ccccc21"
  system: "P388 leukemia ip, CD2F1 mice, survival T/C"
  category: "F"
- molecule: "CCOC(=O)C(N=Nc1nn[nH]n1)c1ncn[nH]1 (stereo unspecified)"
  system: "P388 leukemia ip, CD2F1 mice, survival T/C"
  category: "F"
- molecule: "Cc1nnc2sc(C(F)(F)F)nn12"
  system: "P388 leukemia ip, CD2F1 mice, survival T/C"
  category: "F"
- molecule: "O=C(CCc1cc2[nH]c1c(-c1ccccc1)c1nc(c(-c3ccccc3)c3ccc([nH]3)c(-c3ccccc3)c3nc(c2-c2ccccc2)C=C3)C=C1)NCCCn1ccnc1"
  system: "P388 leukemia ip, CD2F1 mice, survival T/C"
  category: "F"
- molecule: "O=P1(Oc2ccccc2)NC2CCCCC2N1 (stereo unspecified)"
  system: "P388 leukemia ip, CD2F1 mice, survival T/C"
  category: "F"
- molecule: "NC(=S)N/N=C/c1c(Cl)nc2sccn12"
  system: "P388 leukemia ip, CD2F1 mice, survival T/C"
  category: "F"
- molecule: "Nc1n[nH]c(=O)n1N"
  system: "P388 leukemia ip, CD2F1 mice, survival T/C"
  category: "F"
- molecule: "COC1=CC(c2ccccc2)=N/C1=C/c1ccc[nH]1"
  system: "P388 leukemia ip, CD2F1 mice, survival T/C"
  category: "F"
- molecule: "CCOC(=O)Cn1cc([N+](=O)[O-])sc1=NC(=O)c1ccco1"
  system: "P388 leukemia ip, CD2F1 mice, survival T/C"
  category: "F"
- molecule: "N#CC1CCCC(c2ccccc2)(C2CCCCC2)C1=O (stereo unspecified)"
  system: "P388 leukemia ip, CD2F1 mice, survival T/C"
  category: "F"
- molecule: "CCOc1ccc(N=NC2C(=O)N(c3cccc(Cl)c3Cl)C(=S)N(c3ccccc3)C2O)cc1 (stereo unspecified)"
  system: "P388 leukemia ip, CD2F1 mice, survival T/C"
  category: "F"
- molecule: "c1cc2cc3c(cc2o1)OC[C@H]1c2cc4c(cc2O[C@@H]31)OCO4"
  system: "P388 leukemia ip, CD2F1 mice, survival T/C"
  category: "F"
- molecule: "O=NN(CCCl)C(=O)Oc1cc(Cl)c(Cl)cc1Cl"
  system: "P388 leukemia ip, CD2F1 mice, survival T/C"
  category: "T"

###

System: P388 leukemia ip, CD2F1 mice, survival T/C
Experiment: NCI In Vivo Anticancer Drug Screen. Data for tumor model P388 Leukemia (intraperitoneal) in CD2F1 (CDF1) mice
Conditions: endpoint: median survival time; dose: 30.0 mg/kg/injection; schedule: Q01DX005 (ip); vehicle: Klucel (hydroxypropylcellulose) (HPC); higher = longer survival
Inconclusive results and toxic doses are left out.
Listed here: items and their measured T/C.
measured-parameter: T/C

- compound: "N#CC(C#N)=C(C#N)Nc1ccc(F)cc1"
  measured-parameter: "T/C"
  experimental-result: "91 % of control"
- compound: "CCc1nc(N)nc(N)c1-c1ccc(N(C)C)c(N=[N+]=[N-])c1"
  measured-parameter: "T/C"
  experimental-result: "92 % of control"
- compound: "COc1ccc(C2OC3=C(Nc4ccc(Cl)cc4N3)C2=O)c(OC)c1 (stereo unspecified)"
  measured-parameter: "T/C"
  experimental-result: "92 % of control"
- compound: "COc1ccc(C2OC3=C(Nc4ccc(Cl)cc4N3)C2=O)cc1 (stereo unspecified)"
  measured-parameter: "T/C"
  experimental-result: "98 % of control"
- compound: "CCOC(=O)c1ccc(N=NC2Sc3nc4ccccc4n3C2=O)cc1 (stereo unspecified)"
  measured-parameter: "T/C"
  experimental-result: "90 % of control"
- compound: "CC(C)(Cc1nc2ccccc2[nH]1)Cc1nc2ccccc2[nH]1"
  measured-parameter: "T/C"
  experimental-result: "91 % of control"

Data credit: PubChem BioAssay AID330
